Subject of test: p50p50 homodimer (Homo sapiens, UniProt P19838 7-356)
Sequence (P19838 7-356): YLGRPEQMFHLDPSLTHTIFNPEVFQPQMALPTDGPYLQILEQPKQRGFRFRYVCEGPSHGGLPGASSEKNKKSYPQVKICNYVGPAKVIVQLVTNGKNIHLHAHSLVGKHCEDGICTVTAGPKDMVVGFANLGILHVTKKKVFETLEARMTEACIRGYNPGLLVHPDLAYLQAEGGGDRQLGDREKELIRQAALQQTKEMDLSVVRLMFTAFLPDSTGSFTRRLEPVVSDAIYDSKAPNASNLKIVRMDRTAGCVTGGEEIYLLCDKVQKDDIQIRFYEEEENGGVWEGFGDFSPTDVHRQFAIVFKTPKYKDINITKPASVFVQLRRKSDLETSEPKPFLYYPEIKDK
Test description: protein binding microarray; high values mean tight binding
Stated conditions: dsDNA, one strand shown
A collection of sequences and their measured binding signal
Dear colleague, please return just the value in z-score, with no unit written.

Examples from the recorded data:
GGGGTAACCCT
0.343
CGGTAGCCCCT
0.991
AAAATTTTCCT
0.214

Sure, the documented binding signal for GAAAGTGCCCC is 0.277

So for AAATTGGCCCC , the logged binding signal turned out to be 0.122

# sequence CAAGGTATCCC ; its binding signal = -0.9

Note to self: binding signal recorded for CAAGAGTCCCC was 1.31

sequence CAAGAACCCCC , binding signal observed: 1.28

// recorded binding signal for CGGTTCATCCT : -1.12

Noted for GAAAGACCCCC : its binding signal reads 0.985

Measured binding signal, AAGTTTCTCCC : 0.601

Please fill in: binding signal reported for CGGGAGCTCCC = 0.136

Lab book: binding signal of CAATGTCTCCC noted as -0.647

Reported binding signal for AAGAGAGCCCC was 0.339

binding signal reported for this sequence AAGTGGGCCCT : -0.904

Briefly, binding signal measured for GAATAACTCCT : -1.37

Reported binding signal for GGAGTGACCCC was -0.505

Lab note: GAAAAATTCCT gave binding signal of -0.0646

Briefly, binding signal measured for GAGGAATCCCT : 0.599

GET /value?item= AAATTGCTCCT &field=binding signal returns -1.61

---

Subject of test: RELA (p65) subunit of heterodimer;p50 subunit (Homo sapiens;Homo sapiens, UniProt Q04206;P19838 1-307;7-356)
Sequence (Q04206 1-307, chain 1 of 2): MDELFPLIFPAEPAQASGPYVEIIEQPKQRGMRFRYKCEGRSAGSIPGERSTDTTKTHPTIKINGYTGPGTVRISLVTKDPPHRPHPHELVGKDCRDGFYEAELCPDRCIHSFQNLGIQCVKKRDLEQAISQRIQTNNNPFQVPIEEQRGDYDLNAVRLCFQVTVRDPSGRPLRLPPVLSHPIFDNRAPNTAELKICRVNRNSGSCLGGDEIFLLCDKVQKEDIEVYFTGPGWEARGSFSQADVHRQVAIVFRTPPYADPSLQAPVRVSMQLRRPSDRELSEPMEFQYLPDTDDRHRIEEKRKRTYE
Sequence (P19838 7-356, chain 2 of 2): as the sequence (P19838 7-356) above
Test description: protein binding microarray; high values mean tight binding
Stated conditions: dsDNA, one strand shown
Measurement name: binding signal (z-score)
Give the number; z-score is assumed, so skip it.

Completed entries (count: 6):
GGGTTATCCCC
1.96
GGAGAACCCCC
1.88
AGGTAGGCCCT
-0.978
AAGTTGATCCC
-0.903
GGGTGTTTCCT
0.736
CGAGACGTCCT
-1.16

Record GAGTTGTTCCC , field binding signal: -0.188

Value of binding signal reported for the sequence CAAAGTCCCCT is 1.79

Lab book: binding signal of GAGTAAGCCCC noted as 0.392

---

Subject of test: RELB subunit;p50 subunit (Homo sapiens;Homo sapiens, UniProt Q01201;P19838 120-401;7-356)
Sequence (Q01201 120-401, chain 1 of 2): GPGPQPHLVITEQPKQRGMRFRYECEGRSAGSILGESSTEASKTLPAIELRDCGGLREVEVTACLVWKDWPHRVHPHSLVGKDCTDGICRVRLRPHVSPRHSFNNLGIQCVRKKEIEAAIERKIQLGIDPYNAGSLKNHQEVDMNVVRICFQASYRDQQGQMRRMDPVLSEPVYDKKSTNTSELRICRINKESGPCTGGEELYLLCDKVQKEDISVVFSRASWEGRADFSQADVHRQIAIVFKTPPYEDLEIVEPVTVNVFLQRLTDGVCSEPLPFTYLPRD
Sequence (P19838 7-356, chain 2 of 2): as the sequence (P19838 7-356) above
Test description: protein binding microarray; high values mean tight binding
Stated conditions: dsDNA, one strand shown
Classify by binding signal. Ranges: low bracket = under -0.3 z-score, middle bracket = from -0.3 z-score up to 0.9 z-score, high bracket = 0.9 z-score and over

AAAGTTCTCCT
low bracket
AAATGCTTCCC
middle bracket
AAAAAGCCCCC
high bracket

Exam item: Please indicate the class for CGGTAACTCCC based on its binding signal.
Marked response: middle bracket

Exam item: Please classify: GGGGTTGTCCC
Marked response: high bracket

---

Subject of test: C-Rel subunit;p50 subunit (Homo sapiens;Homo sapiens, UniProt Q04864;P19838 1-285;7-356)
Sequence (Q04864 1-285, chain 1 of 2): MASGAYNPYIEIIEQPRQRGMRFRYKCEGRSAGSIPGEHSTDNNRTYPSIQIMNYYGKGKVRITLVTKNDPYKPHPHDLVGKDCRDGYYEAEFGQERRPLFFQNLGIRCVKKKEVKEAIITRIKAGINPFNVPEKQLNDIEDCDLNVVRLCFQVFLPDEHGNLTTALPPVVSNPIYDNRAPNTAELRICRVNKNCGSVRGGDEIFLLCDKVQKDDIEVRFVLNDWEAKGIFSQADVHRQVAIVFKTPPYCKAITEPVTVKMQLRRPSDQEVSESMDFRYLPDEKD
Sequence (P19838 7-356, chain 2 of 2): as the sequence (P19838 7-356) above
Test description: protein binding microarray; high values mean tight binding
Stated conditions: dsDNA, one strand shown
Listed next: entries and their corresponding binding signal.
Value expressed in z-score; do not type the unit.

Answered cases to consult:
GAATAGGTCCT
-1.35
GGAGGTATCCC
-0.57

Note to self: binding signal recorded for CGAAGCATCCT was -1.65

binding signal recorded for this sequence, GAATTATTCCC , is 1.16

Record GAATAACTCCT , field binding signal: -0.82

The measured binding signal associated with GAGAATACCCC reads 1.03

Recorded binding signal (sequence AGGAATGCCCT ): -0.208
